// data source = ChEMBL document CHEMBL5316280

# testedSystem: Cannabinoid receptor 2 (Homo sapiens, UniProt P34972)
# Sequence (P34972 whole entry): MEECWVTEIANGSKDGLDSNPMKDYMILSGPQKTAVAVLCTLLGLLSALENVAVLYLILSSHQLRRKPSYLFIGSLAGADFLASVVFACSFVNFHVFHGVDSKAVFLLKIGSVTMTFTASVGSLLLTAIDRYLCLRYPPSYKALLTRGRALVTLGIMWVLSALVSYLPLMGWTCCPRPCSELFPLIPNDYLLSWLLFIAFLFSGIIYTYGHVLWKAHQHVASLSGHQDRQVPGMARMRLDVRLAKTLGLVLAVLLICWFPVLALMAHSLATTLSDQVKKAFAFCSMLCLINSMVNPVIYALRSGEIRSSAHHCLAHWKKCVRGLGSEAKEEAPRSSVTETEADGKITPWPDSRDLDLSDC
# protocol: Agonist activity at human CB2 receptor overexpressed in CHO-K1 cells assessed as cAMP level incubated for 30 mins by luminescence based assay
pEC50: −log10 of the molar value.
Quick reference: pEC50 of the listed items.
readout: pEC50

INSERT INTO results (chemicalsmiles, readout, measured) VALUES
  ('CCCCCOc1ccccc1C(=O)NC12CC3CC(CC(C3)C1)C2', 'pEC50', 7.06),
  ('CCCC(C)(C)c1ccc2c(c1)OC(C)(C)[C@@H]1CC=C(C)C[C@@H]21', 'pEC50', 6.77),
  ('O=C(NC12CC3CC(CC(C3)C1)C2)c1ccccc1OCc1ccccc1', 'pEC50', 6.91),
  ('O=C(NC12CC3CC(CC(C3)C1)C2)c1ccccc1OCC1CCCCC1', 'pEC50', 6.55);

###

Quick reference: pIC50 of the listed items.
# testedSystem: Fatty-acid amide hydrolase 1 (Homo sapiens, UniProt O00519)
# protocol: Inhibition of recombinant human FAAH using AMC-AA as substrate preincubated for 10 mins followed by substrate addition measured after 2 hrs by fluorometric assay
pIC50: −log10 of the molar value.
readout: pIC50

INSERT INTO results (chemicalsmiles, qualifieroperator, measured) VALUES
  ('COc1cccc(C(=O)NC23CC4CC(CC(C4)C2)C3)c1', '=', 4.49),
  ('COc1cccc(C(=O)NC23CC4CC(CC(C4)C2)C3)c1OC', '<', 4.30),
  ('COc1ccc(C(=O)NC23CC4CC(CC(C4)C2)C3)cc1', '<', 4.30),
  ('COc1cc(Br)cc(C(=O)NC23CC4CC(CC(C4)C2)C3)c1O', '=', 4.42),
  ('O=C(NC12CC3CC(CC(C3)C1)C2)c1ccccc1', '=', 4.63),
  ('COc1cc(Br)cc(C(=O)NC23CC4CC(CC(C4)C2)C3)c1OC', '=', 4.35),
  ('COc1cc(Br)cc(C(=O)NC23CC4CC(CC(C4)C2)C3)c1OCc1ccccc1', '=', 5.06);

###

Quick reference: IC50 of the listed items.
# testedSystem: UniProt O00519
# Sequence (O00519 whole entry): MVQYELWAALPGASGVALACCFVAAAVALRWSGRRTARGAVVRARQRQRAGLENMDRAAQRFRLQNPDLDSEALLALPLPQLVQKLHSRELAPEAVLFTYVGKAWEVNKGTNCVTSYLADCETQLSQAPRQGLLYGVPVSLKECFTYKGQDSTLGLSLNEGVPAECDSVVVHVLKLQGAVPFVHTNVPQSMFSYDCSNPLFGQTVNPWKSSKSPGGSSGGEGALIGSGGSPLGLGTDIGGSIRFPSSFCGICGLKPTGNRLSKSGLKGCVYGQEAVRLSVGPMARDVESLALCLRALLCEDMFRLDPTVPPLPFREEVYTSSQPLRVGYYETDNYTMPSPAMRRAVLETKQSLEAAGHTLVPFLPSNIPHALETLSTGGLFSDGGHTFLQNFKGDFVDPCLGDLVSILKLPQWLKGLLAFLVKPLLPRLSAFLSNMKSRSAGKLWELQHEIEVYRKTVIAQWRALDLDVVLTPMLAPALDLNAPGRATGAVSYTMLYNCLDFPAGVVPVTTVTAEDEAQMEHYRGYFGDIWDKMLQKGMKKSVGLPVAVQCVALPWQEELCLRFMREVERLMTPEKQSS
# protocol: Inhibition of recombinant human FAAH using AMC-AA as substrate preincubated for 10 mins followed by substrate addition measured after 2 hrs by fluorometric assay
readout: IC50 (µM)

INSERT INTO assay_data (chemicalsmiles, quantityunit, qualifieroperator, measured) VALUES
  ('O=C(NC12CC3CC(CC(C3)C1)C2)c1ccc(O)cc1', 'µM', '>', 50),
  ('COc1ccccc1C(=O)NC12CC3CC(CC(C3)C1)C2', 'µM', '=', 48.5),
  ('COc1cccc(C(=O)NC23CC4CC(CC(C4)C2)C3)c1O', 'µM', '>', 50),
  ('CCCCCOc1ccccc1C(=O)NC12CC3CC(CC(C3)C1)C2', 'µM', '=', 6.2),
  ('COc1ccc(C(=O)NC23CC4CC(CC(C4)C2)C3)cc1OC', 'µM', '>', 50),
  ('O=C(NC12CC3CC(CC(C3)C1)C2)c1ccccc1O', 'µM', '>', 50),
  ('O=C(NC12CC3CC(CC(C3)C1)C2)c1ccc(OCc2ccccc2)cc1', 'µM', '=', 19.5),
  ('O=C(NC12CC3CC(CC(C3)C1)C2)c1ccccc1OCc1ccccc1', 'µM', '=', 4),
  ('O=C(NC12CC3CC(CC(C3)C1)C2)c1cccc(OCc2ccccc2)c1', 'µM', '=', 24.1),
  ('O=C(NC12CC3CC(CC(C3)C1)C2)c1cccc(O)c1', 'µM', '=', 25.6),
  ('O=C(NC12CC3CC(CC(C3)C1)C2)c1ccccc1OCC1CCCCC1', 'µM', '=', 3.4);
